# testTarget: Bifunctional dihydrofolate reductase-thymidylate synthase (Trypanosoma cruzi)
# Sequence (Q27793 whole entry): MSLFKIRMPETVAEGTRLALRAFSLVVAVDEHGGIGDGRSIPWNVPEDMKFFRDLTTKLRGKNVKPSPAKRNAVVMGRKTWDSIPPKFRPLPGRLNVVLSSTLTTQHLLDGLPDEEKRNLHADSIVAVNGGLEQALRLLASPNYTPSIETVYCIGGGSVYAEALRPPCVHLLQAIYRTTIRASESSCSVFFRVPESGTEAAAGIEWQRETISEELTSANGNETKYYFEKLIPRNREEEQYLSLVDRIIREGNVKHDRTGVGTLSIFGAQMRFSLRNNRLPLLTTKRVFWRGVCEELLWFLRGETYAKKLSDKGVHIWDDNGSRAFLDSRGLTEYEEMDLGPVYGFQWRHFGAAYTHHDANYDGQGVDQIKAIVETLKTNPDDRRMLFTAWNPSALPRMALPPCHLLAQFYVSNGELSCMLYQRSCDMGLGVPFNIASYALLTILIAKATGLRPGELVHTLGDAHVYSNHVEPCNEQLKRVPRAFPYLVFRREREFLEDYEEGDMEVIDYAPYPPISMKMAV
# protocolText: Inhibition of recombinant Trypanosoma cruzi DHFR-TS assessed as inhibition constant
measuredQuantity: Ki (nM)

INSERT INTO measurements (smilesinput, measuredquantity, unitsofmeasure, observedresult) VALUES
  ('CC(C)Oc1cccc(Cc2cnc(N)nc2N)c1', 'Ki', 'nM', 23),
  ('Nc1ncc(Cc2ccc(Oc3ccccc3)cc2)c(N)n1', 'Ki', 'nM', 30);

---

# protocolText: Inhibition of Trypanosoma cruzi PTR1 using folic acid as substrate in presence of NADPH by spectrophotometry
measuredQuantity: IC50 (nM)
Quick reminder: number only, in nM, skip the unit.

Input: Consider the compound shown here: CN(Cc1cnc2nc(N)nc(N)c2n1)c1ccc(C(=O)N[C@@H](CCC(=O)O)C(=O)O)cc1 [METHOTREXATE] What is its recorded IC50?
Output: 0.038

---

# testTarget: Cruzipain (Trypanosoma cruzi, UniProt P25779)
# Sequence (P25779 whole entry): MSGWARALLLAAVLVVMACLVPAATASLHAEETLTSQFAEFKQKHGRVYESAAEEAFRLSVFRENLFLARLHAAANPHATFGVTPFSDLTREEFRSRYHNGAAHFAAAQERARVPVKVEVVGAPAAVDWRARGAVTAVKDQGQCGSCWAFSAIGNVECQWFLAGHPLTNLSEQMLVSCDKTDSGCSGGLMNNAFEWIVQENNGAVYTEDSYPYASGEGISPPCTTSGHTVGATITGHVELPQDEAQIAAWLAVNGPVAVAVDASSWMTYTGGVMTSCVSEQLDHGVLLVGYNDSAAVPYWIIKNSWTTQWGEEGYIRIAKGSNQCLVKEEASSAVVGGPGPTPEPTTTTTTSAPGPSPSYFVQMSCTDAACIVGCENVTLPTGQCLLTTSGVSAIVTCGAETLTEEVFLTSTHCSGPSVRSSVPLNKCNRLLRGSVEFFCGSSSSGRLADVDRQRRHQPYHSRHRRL
# protocolText: Inhibition of Trypanosoma cruzi Cruzaine
pIC50: −log10 of the molar value.
measuredQuantity: pIC50

[P] CCOC(=O)/C=C/C(=O)[C@H](CC(C)C)NC(=O)[C@@H](CC(=O)c1ccccc1)Cc1ccccc1
[Q] COc1ccc(NC(=O)COC(=O)C(CC(C)C)N2C(=O)C(Cl)=C(Cl)C2=O)cc1 (configuration not stated)
Input: Hi there! Just curious which has the higher pIC50 between P and Q . I would appreciate it if you answered with the label of your choice.
Output: Q

---

# testTarget: Triosephosphate isomerase, glycosomal (Trypanosoma cruzi)
# Sequence (P52270 whole entry): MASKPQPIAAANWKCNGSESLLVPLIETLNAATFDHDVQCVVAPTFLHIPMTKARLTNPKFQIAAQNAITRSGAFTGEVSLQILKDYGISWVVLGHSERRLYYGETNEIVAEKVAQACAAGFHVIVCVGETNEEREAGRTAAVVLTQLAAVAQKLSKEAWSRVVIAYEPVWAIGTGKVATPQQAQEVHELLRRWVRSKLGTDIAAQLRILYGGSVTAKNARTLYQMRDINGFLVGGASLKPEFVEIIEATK
# protocolText: Inhibition of Trypanosoma cruzi TIM expressed in Escherichia coli using glyceraldehyde 3-phosphate as substrate in presence of NADH/alphaGDPH measured after 2 hrs by spectrophotometry
measuredQuantity: pIC50
pIC50 here: minus log base 10 of the concentration, concentration in moles per litre.

Input: Consider the compound shown here: COc1ccc(-c2c/c(=[S+]/CC(C)=O)ss2)cc1 What is its recorded pIC50?
Output: 4.96

---

# testTarget: UniProtKB P28593
# Sequence (P28593 whole entry): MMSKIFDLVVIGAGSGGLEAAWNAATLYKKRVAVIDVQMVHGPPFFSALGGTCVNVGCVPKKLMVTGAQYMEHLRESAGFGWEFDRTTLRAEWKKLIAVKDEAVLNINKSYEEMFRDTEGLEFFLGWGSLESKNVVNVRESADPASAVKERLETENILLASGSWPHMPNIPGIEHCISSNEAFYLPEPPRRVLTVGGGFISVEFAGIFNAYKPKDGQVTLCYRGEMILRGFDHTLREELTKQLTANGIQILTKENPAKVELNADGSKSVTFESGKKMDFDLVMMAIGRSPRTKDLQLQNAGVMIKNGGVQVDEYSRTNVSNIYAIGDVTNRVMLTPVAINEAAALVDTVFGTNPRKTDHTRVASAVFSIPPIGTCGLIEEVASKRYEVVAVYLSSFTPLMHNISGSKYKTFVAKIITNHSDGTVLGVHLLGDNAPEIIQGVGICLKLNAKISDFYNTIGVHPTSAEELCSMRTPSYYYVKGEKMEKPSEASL
# protocolText: Inhibition of Trypanosoma cruzi TR assessed as inhibition constant in presence of NADPH
pKi: −log10 of the molar value.
measuredQuantity: pKi

[P] Cc1ccc(C)c(OC2=CC(=O)c3ccncc3C2=O)c1
[Q] O=C1C(Br)=C(Oc2ccc3ccccc3c2)C(=O)c2ccccc21
Input: # compare pKi for P vs Q ; return the one with the smaller value I would appreciate it if you answered with the label of your choice.
Output: P
